Numbers sourced from patent US20210388087A1.

assay target: T1, Human CD137 ECD (human)
T1 construct: entry includes C-terminal His-tag and biotin acceptor peptide; also called human CD137 extracellular domain; 4-1BB
T1 sequence (chain, as listed by the source limits assumed): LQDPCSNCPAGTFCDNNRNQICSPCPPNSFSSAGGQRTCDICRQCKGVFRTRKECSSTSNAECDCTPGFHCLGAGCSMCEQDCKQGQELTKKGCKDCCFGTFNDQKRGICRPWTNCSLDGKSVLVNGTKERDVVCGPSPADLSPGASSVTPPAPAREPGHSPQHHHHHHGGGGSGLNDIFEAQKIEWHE
test description: Biacore SPR, vs parent H183/L072
// values below are reported fold change of affinity
Express your answer in fold, writing the number without its unit.

Quick note, fold change of affinity for H183/L072 VL Q90W (antibody, name in Kabat numbering, V domains shown, Dual-Ig) VH: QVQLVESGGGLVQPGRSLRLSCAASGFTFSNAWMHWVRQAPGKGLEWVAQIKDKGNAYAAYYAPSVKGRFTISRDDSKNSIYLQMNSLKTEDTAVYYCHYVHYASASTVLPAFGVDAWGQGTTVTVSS VL: DIVMTQSPLSLPVTPGEPASISCQASQELVHMNRNTYLHWYQQKPGQAPRLLIYKVSNRFPGVPDRFSGSGSGTDFTLKISRVEAEDVGVYYCAWGTSVPFTFGQGTKLEIK landed at 0

Next:
Quick note, fold change of affinity for H183/L072 VL V94P (antibody, name in Kabat numbering, V domains shown, Dual-Ig) VH: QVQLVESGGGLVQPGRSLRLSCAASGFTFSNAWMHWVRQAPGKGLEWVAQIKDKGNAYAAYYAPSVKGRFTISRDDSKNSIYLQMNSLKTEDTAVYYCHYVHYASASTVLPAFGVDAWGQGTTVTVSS VL: DIVMTQSPLSLPVTPGEPASISCQASQELVHMNRNTYLHWYQQKPGQAPRLLIYKVSNRFPGVPDRFSGSGSGTDFTLKISRVEAEDVGVYYCAQGTSPPFTFGQGTKLEIK landed at 0.1

Quick note, fold change of affinity for H183/L072 VL F55I (antibody, name in Kabat numbering, V domains shown, Dual-Ig) VH: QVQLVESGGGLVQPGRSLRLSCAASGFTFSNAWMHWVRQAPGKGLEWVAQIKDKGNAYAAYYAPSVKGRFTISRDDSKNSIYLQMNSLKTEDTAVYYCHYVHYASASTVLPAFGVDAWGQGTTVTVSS VL: DIVMTQSPLSLPVTPGEPASISCQASQELVHMNRNTYLHWYQQKPGQAPRLLIYKVSNRIPGVPDRFSGSGSGTDFTLKISRVEAEDVGVYYCAQGTSVPFTFGQGTKLEIK landed at 0

Quick note, fold change of affinity for H183/L072 VL A89K (antibody, name in Kabat numbering, V domains shown, Dual-Ig) VH: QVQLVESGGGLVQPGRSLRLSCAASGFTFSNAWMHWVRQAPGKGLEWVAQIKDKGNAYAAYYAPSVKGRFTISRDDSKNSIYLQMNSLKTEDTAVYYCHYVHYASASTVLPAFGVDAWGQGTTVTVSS VL: DIVMTQSPLSLPVTPGEPASISCQASQELVHMNRNTYLHWYQQKPGQAPRLLIYKVSNRFPGVPDRFSGSGSGTDFTLKISRVEAEDVGVYYCKQGTSVPFTFGQGTKLEIK landed at 0

Quick note, fold change of affinity for H183/L072 VL T92F (antibody, name in Kabat numbering, V domains shown, Dual-Ig) VH: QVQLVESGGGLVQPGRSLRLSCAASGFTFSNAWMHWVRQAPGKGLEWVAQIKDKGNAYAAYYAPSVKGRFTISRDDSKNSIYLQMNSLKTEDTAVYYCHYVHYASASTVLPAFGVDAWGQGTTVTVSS VL: DIVMTQSPLSLPVTPGEPASISCQASQELVHMNRNTYLHWYQQKPGQAPRLLIYKVSNRFPGVPDRFSGSGSGTDFTLKISRVEAEDVGVYYCAQGFSVPFTFGQGTKLEIK landed at 0
